System: SN12C
Protocol details: NCI tumour cell line growth inhibition, 48 h
The source made the active and inactive calls. Cut-off read from the data, not from the text of the source: active = GI50 up to about 1.1 µM and inactive = higher.
Outcome codes: active, inactive

| Molecule | Class |
| --- | --- |
| C1=CC=C2NCCSCC/N=C3/C=CC=CC=C3NCCSCC/N=C\2C=C1 | inactive |
| CC(NC1=CC(=O)c2cccnc2C1=O)C(O)c1ccccc1 (stereo not given) | inactive |
| COc1ccc(Cc2ccc3nc(O)cc(C)c3c2)cc1S(=O)(=O)O | inactive |
| NC(=O)c1c(-c2ccccc2)c(-c2ccccc2)cc2c(=O)c3ccccc3[nH]c12 | inactive |
| C=C[Si](C)(C)COC(=O)/C(C#N)=C/C=C/c1ccccc1 | inactive |
| Cc1cccc(CC(Cc2c(C)cccc2C(=O)O)C(=O)O)c1 (stereo not given) | inactive |
| Nc1nc(SCCC/C=C/B(O)O)nc2c1ncn2C1OC(CO)C(O)C1O (stereo not given) | inactive |
| CC[C@@]1(O)C[C@H](OC2CC(N(C)C)C(O)C(C)O2)c2c(O)c3c(c(O)c2[C@H]1OC1CC(N(C)C)C(O)C(C)O1)C(=O)c1cccc(O)c1C3=O (stereo not given in full) | active |
| COc1cc2c(cc1OC)CC(=O)c1cc(OC)c(OC)cc1/C=C\2 | inactive |
| CC1OC(n2cc(F)c(=O)[nH]c2=O)C=CC1O (stereo not given) | inactive |
| c1ccc2c(c1)ccc1nc3ccccn3c12 | inactive |
| C=C1[C@@H](C)[C@H]2[C@H](Cc3ccccc3)NC(=O)[C@]23OC(=O)/C=C/[C@H](O)CCC[C@@H](C)C/C=C/[C@H]3[C@@H]1O | inactive |
| Cc1cn(C2CC(O)C(COC(=O)NCCC(F)(F)C(F)(F)C(F)(F)C(F)(F)F)O2)c(=O)[nH]c1=O (stereo not given) | inactive |
| O=C(CN1CCCCC1)Nc1ccc2sc3ccccc3c(=O)c2n1 | inactive |
| CN(C)Cc1cc(/C(=C(\C#N)c2ccccc2)c2ccc(O)cc2)ccc1O | inactive |
| CCOC(=O)n1c2ccccc2c2c(O)c(OC)c3c(c21)C(=O)NC3=O | inactive |
| O=C(Nc1ccc(C(F)(F)F)cc1[N+](=O)[O-])C(=O)Nn1c(S)nc2ccccc2c1=O | inactive |
| O=c1cc(-c2ccccc2)oc2cc(OCCCOc3ccc4c(=O)cc(-c5ccccc5)oc4c3)ccc12 | inactive |
| COC(=O)C1=C(C(=O)OC)SC(=C2SCSC3=C2SC(C(=O)OC)=C(C(=O)OC)C32SC3=C(CCCC3)S2)S1 | inactive |
| C=C1C(OC(C)=O)CC(OC(C)=O)C2(C)C(OC(C)=O)C(OC(C)=O)C3=C(C)C(OC(=O)/C=C/c4ccccc4)CC(C(OC(C)=O)C12)C3(C)C (stereo not given) | inactive |
| [N-]=[N+]=Nc1c(N2CCOCC2)c(Cl)nc2ccccc12 | inactive |
| CSc1[nH]nc(N)c1C(=O)Nc1ccccc1 | inactive |
| O=C1NC(=O)c2c1n(Cc1ccccc1)c(=O)n2Cc1ccccc1 | inactive |
| CC1OC(OC2C(CO)OC(O[C@H]3CC[C@@]4(C)C(=CC[C@H]5[C@@H]6C[C@@H]7O[C@]8(CC[C@@H](C)CN8)[C@@H](C)[C@@H]7[C@@]6(C)CC[C@@H]54)C3)C(O)C2O)C(O)C(O)C1O (stereo not given in full) | inactive |
| CC1(C)C2CCC(N)(C2)C1N (stereo not given) | inactive |
| O=C(/C=C/NC(=O)OCc1ccccc1)OCc1ccccc1 | inactive |
| Cc1nc(N)nc(N)c1CCCCc1ccccc1 | inactive |
| COc1cc([N+](=O)[O-])c(S(=O)(=O)O)cc1N | inactive |
| Cc1nc2c(=O)n(-c3ccccc3)c(=O)n(-c3ccccc3)c2o1 | inactive |
| O=S1(=O)OCCOS(=O)(=O)C1(F)Br | inactive |
